# Tested on: MDR1
# experiment-summary: Apparent permeability from apical to basal side of MDCK cells expressing MDR1
# Assay type: ADME, cell-based, Canis lupus familiaris
# condition-notes: dog
Threshold-based label: Papp A→B under 9 ×10⁻⁶ cm/s gives YES, Papp A→B not under 9 ×10⁻⁶ cm/s gives NO.

Data request: API: query returns whether the molecule falls strictly under 9 ×10⁻⁶ cm/s in Papp A→B. Query: CC(=O)NC1CCCOc2c1nn(-c1ccccc1Cl)c2-c1ccc(Cl)cc1 (racemic)
Data returned: NO

Data request: API: query returns whether the molecule falls strictly under 9 ×10⁻⁶ cm/s in Papp A→B. Query: CCC(=O)NC1CCCOc2c1nn(-c1ccccc1Cl)c2-c1ccc(Cl)cc1 (racemic)
Data returned: NO

Data request: API: query returns whether the molecule falls strictly under 9 ×10⁻⁶ cm/s in Papp A→B. Query: O=C(NC1CCCOc2c1nn(-c1ccccc1Cl)c2-c1ccc(Cl)cc1)C1CCOCC1 (racemic)
Data returned: YES

Data request: API: query returns whether the molecule falls strictly under 9 ×10⁻⁶ cm/s in Papp A→B. Query: O=C1CCCN1C1CCCOc2c1nn(-c1ccccc1Cl)c2-c1ccc(Cl)cc1 (racemic)
Data returned: NO

Data request: API: query returns whether the molecule falls strictly under 9 ×10⁻⁶ cm/s in Papp A→B. Query: CC(C)C(=O)NC1CCCOc2c1nn(-c1ccccc1Cl)c2-c1ccc(Cl)cc1 (racemic)
Data returned: YES

Data request: API: query returns whether the molecule falls strictly under 9 ×10⁻⁶ cm/s in Papp A→B. Query: O=C(NC1CCCOc2c1nn(-c1ccccc1Cl)c2-c1ccc(Cl)cc1)c1ccno1 (racemic)
Data returned: YES

Data request: API: query returns whether the molecule falls strictly under 9 ×10⁻⁶ cm/s in Papp A→B. Query: N#CC1(C(=O)NC2CCCOc3c2nn(-c2ccccc2Cl)c3-c2ccc(Cl)cc2)CC1 (stereo unspecified)
Data returned: YES

Data request: API: query returns whether the molecule falls strictly under 9 ×10⁻⁶ cm/s in Papp A→B. Query: CCOCC(=O)NC1CCCOc2c1nn(-c1ccccc1Cl)c2-c1ccc(Cl)cc1 (stereo unspecified)
Data returned: YES

Data request: API: query returns whether the molecule falls strictly under 9 ×10⁻⁶ cm/s in Papp A→B. Query: CCNC(=O)NC1CCCOc2c1nn(-c1ccccc1Cl)c2-c1ccc(Cl)cc1 (racemic)
Data returned: YES

Data request: API: query returns whether the molecule falls strictly under 9 ×10⁻⁶ cm/s in Papp A→B. Query: O=C(NC1CCCOc2c1nn(-c1ccccc1Cl)c2-c1ccc(Cl)cc1)c1cnon1 (racemic)
Data returned: YES
